Target: Neutrophil elastase (Homo sapiens, UniProt P08246)
Sequence (P08246 whole entry): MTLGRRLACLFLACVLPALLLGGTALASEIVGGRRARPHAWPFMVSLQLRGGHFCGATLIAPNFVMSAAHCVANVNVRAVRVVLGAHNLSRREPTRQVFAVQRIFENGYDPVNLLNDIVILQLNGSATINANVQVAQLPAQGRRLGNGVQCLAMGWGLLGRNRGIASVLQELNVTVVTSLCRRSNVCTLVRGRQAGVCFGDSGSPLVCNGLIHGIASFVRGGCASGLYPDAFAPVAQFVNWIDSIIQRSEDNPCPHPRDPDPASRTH
Experiment: In vitro inhibitory activity against human leukocyte elastase
pIC50: −log10 of the molar value. Square brackets hold non-standard residues; d marks the D form. Peptide text beside a SMILES is read from it. * marks the point of attachment. ξ: configuration not given here. Cbz = O=C(OCc1ccccc1)*; ξV = CC(C)C(N)C(=O)O; CF3 = FC(F)(F)*; Sar = CNCC(=O)O
Here the recorded pIC50 is given for each entry.

[
  {
    "Compound": "CC(C)C(NC(=O)CN(C)C(=O)[C@@H](NC(=O)OCc1ccccc1)C(C)C)C(=O)C(F)(F)F (stereo partly drawn) (Cbz-Val-[Sar]-[ξV]-CF3)",
    "pIC50": 6.82
  },
  {
    "Compound": "CC(C)C(NC(=O)CN(C(=O)[C@@H](NC(=O)c1ccc(C(=O)NS(=O)(=O)c2ccc(Cl)cc2)cc1)C(C)C)C1CCCC1)C(=O)C(F)(F)F (stereo partly drawn)",
    "pIC50": 7.04
  },
  {
    "Compound": "CC(C)C(NC(=O)CN(Cc1ccccc1)C(=O)[C@@H](NC(=O)c1ccc(C(=O)NS(=O)(=O)c2ccc(Cl)cc2)cc1)C(C)C)C(=O)C(F)(F)F (stereo partly drawn)",
    "pIC50": 6.66
  }
]

###

Molecular target: Neutrophil elastase (Homo sapiens, UniProt P08246)
Assay: In vitro inhibitory activity against human leukocyte elastase
Square brackets hold non-standard residues; d marks the D form. Peptide text beside a SMILES is read from it. * marks the point of attachment. ξ: configuration not given here. Boc = CC(C)(C)OC(=O)*; ξV = CC(C)C(N)C(=O)O; CF3 = FC(F)(F)*

[
  {
    "Compound": "CC(C)C(NC(=O)CN(C(=O)[C@@H](NC(=O)c1ccc(C(=O)NS(=O)(=O)c2ccc(Br)cc2)cc1)C(C)C)C1Cc2ccccc2C1)C(=O)C(F)(F)F (stereo partly specified)",
    "Measured target": "Neutrophil elastase (Homo sapiens, UniProt P08246)",
    "Relation symbol": "=",
    "IC50 / nM": 149
  },
  {
    "Compound": "CC(C)C(NC(=O)CN(CC1CCCO1)C(=O)[C@@H](NC(=O)c1ccc(C(=O)NS(=O)(=O)c2ccc(Cl)cc2)cc1)C(C)C)C(=O)C(F)(F)F (stereo partly specified)",
    "Measured target": "Neutrophil elastase (Homo sapiens, UniProt P08246)",
    "Relation symbol": "=",
    "IC50 / nM": 30
  },
  {
    "Compound": "CC(C)C(NC(=O)CN(C(=O)OCc1ccccc1)C1Cc2ccccc2C1)C(=O)C(F)(F)F (stereo unspecified)",
    "Measured target": "Neutrophil elastase (Homo sapiens, UniProt P08246)",
    "Relation symbol": ">",
    "IC50 / nM": 5000
  },
  {
    "Compound": "CCOC(=O)N1CCC(N(CC(=O)NC(C(=O)C(F)(F)F)C(C)C)C(=O)[C@@H](NC(=O)c2ccc(C(=O)NS(=O)(=O)c3ccc(Cl)cc3)cc2)C(C)C)CC1 (stereo partly specified)",
    "Measured target": "Neutrophil elastase (Homo sapiens, UniProt P08246)",
    "Relation symbol": "=",
    "IC50 / nM": 57
  },
  {
    "Compound": "CC(C)[C@H](NC(=O)CN(C(=O)[C@@H](NC(=O)OCc1ccccc1)C(C)C)C1Cc2ccccc2C1)C(=O)c1ccc(C(F)(F)F)cc1",
    "Measured target": "Neutrophil elastase (Homo sapiens, UniProt P08246)",
    "Relation symbol": ">",
    "IC50 / nM": 5000
  },
  {
    "Compound": "COc1ccc(CCN(CC(=O)NC(C(=O)C(F)(F)F)C(C)C)C(=O)[C@@H](NC(=O)c2ccc(C(=O)NS(=O)(=O)c3ccc(Cl)cc3)cc2)C(C)C)cc1OC (stereo partly specified)",
    "Measured target": "Neutrophil elastase (Homo sapiens, UniProt P08246)",
    "Relation symbol": "=",
    "IC50 / nM": 84
  },
  {
    "Compound": "CC(C)C(NC(=O)C1CCCN1C(=O)[C@@H](NC(=O)OC(C)(C)C)C(C)C)C(=O)C(F)(F)F (stereo partly specified)",
    "Measured target": "Neutrophil elastase (Homo sapiens, UniProt P08246)",
    "Relation symbol": "=",
    "IC50 / nM": 65
  },
  {
    "Compound": "CC(C)[C@H](NC(=O)c1ccc(C(=O)NS(=O)(=O)c2ccc(Cl)cc2)cc1)C(=O)N(CC(=O)NC(C)(C)C(=O)C(F)(F)F)C1Cc2ccccc2C1",
    "Measured target": "Neutrophil elastase (Homo sapiens, UniProt P08246)",
    "Relation symbol": ">",
    "IC50 / nM": 5000
  },
  {
    "Compound": "CC(C)C(NC(=O)CNC(=O)[C@@H](NC(=O)c1ccc(C(=O)NS(=O)(=O)c2ccc(Cl)cc2)cc1)C(C)C)C(=O)C(F)(F)F (stereo partly specified)",
    "Measured target": "Neutrophil elastase (Homo sapiens, UniProt P08246)",
    "Relation symbol": "=",
    "IC50 / nM": 73
  },
  {
    "Compound": "CC(C)[C@H](NC(=O)c1ccc(C(=O)NS(=O)(=O)c2ccc(Cl)cc2)cc1)C(=O)N(CC(=O)NC(Cc1ccccc1)C(=O)C(F)(F)F)C1Cc2ccccc2C1 (stereo partly specified)",
    "Measured target": "Neutrophil elastase (Homo sapiens, UniProt P08246)",
    "Relation symbol": ">",
    "IC50 / nM": 5000
  },
  {
    "Compound": "CC(C)C(NC(=O)CN(C(=O)[C@@H](NC(=O)c1ccc(C(=O)NS(=O)(=O)c2ccc(Cl)cc2)cc1)C(C)C)C1CCCCCCC1)C(=O)C(F)(F)F (stereo partly specified)",
    "Measured target": "Neutrophil elastase (Homo sapiens, UniProt P08246)",
    "Relation symbol": "=",
    "IC50 / nM": 67
  },
  {
    "Compound": "CCOC(=O)N1CCC(N(CC(=O)NC(C(=O)C(F)(F)F)C(C)C)C(=O)[C@@H](NC(=O)OCc2ccccc2)C(C)C)CC1 (stereo partly specified)",
    "Measured target": "Neutrophil elastase (Homo sapiens, UniProt P08246)",
    "Relation symbol": "=",
    "IC50 / nM": 507
  },
  {
    "Compound": "CC(C)[C@H](NC(=O)OCc1ccccc1)C(=O)N(CC(=O)NCC(=O)C(F)(F)F)C1Cc2ccccc2C1",
    "Measured target": "Neutrophil elastase (Homo sapiens, UniProt P08246)",
    "Relation symbol": ">",
    "IC50 / nM": 5000
  },
  {
    "Compound": "CC(C)C(NC(=O)C1Cc2ccccc2CN1C(=O)[C@@H](NC(=O)OCc1ccccc1)C(C)C)C(=O)C(F)(F)F (stereo in doubt; 20z)",
    "Measured target": "Neutrophil elastase (Homo sapiens, UniProt P08246)",
    "Relation symbol": "=",
    "IC50 / nM": 73
  },
  {
    "Compound": "CC(NC(=O)CN(C(=O)[C@@H](NC(=O)c1ccc(C(=O)NS(=O)(=O)c2ccc(Cl)cc2)cc1)C(C)C)C1Cc2ccccc2C1)C(=O)C(F)(F)F (stereo partly specified)",
    "Measured target": "Neutrophil elastase (Homo sapiens, UniProt P08246)",
    "Relation symbol": "=",
    "IC50 / nM": 817
  },
  {
    "Compound": "CC(C)C(NC(=O)[C@H]1CCCN1C(=O)[C@@H](NC(=O)OC(C)(C)C)C(C)C)C(=O)C(F)(F)F (stereo partly specified)",
    "Measured target": "Neutrophil elastase (Homo sapiens, UniProt P08246)",
    "Relation symbol": "=",
    "IC50 / nM": 172
  },
  {
    "Compound": "CC(C)C(NCCN(C(=O)[C@@H](NC(=O)OC(C)(C)C)C(C)C)C1Cc2ccccc2C1)C(=O)C(F)(F)F (stereo partly specified)",
    "Measured target": "Neutrophil elastase (Homo sapiens, UniProt P08246)",
    "Relation symbol": ">",
    "IC50 / nM": 5000
  },
  {
    "Compound": "CC(C)C(NC(=O)CN(C)C(=O)[C@@H](NC(=O)c1ccc(C(=O)NS(=O)(=O)c2ccc(Cl)cc2)cc1)C(C)C)C(=O)C(F)(F)F (stereo partly specified)",
    "Measured target": "Neutrophil elastase (Homo sapiens, UniProt P08246)",
    "Relation symbol": "=",
    "IC50 / nM": 52
  },
  {
    "Compound": "CC(C)C(NC(=O)C1Cc2ccccc2CN1C(=O)[C@@H](NC(=O)OCc1ccccc1)C(C)C)C(=O)C(F)(F)F (stereo in doubt; 20y)",
    "Measured target": "Neutrophil elastase (Homo sapiens, UniProt P08246)",
    "Relation symbol": "=",
    "IC50 / nM": 233
  },
  {
    "Compound": "CC(C)C(NC(=O)CN(C(=O)[C@@H](NC(=O)c1ccc(C(=O)NS(=O)(=O)c2ccc(Cl)cc2)cc1)C(C)C)C1CCCCCC1)C(=O)C(F)(F)F (stereo partly specified)",
    "Measured target": "Neutrophil elastase (Homo sapiens, UniProt P08246)",
    "Relation symbol": "=",
    "IC50 / nM": 175
  },
  {
    "Compound": "CC(C)C(NC(=O)OCc1ccccc1)C(=O)C(F)(F)F (stereo unspecified)",
    "Measured target": "Neutrophil elastase (Homo sapiens, UniProt P08246)",
    "Relation symbol": ">",
    "IC50 / nM": 5000
  },
  {
    "Compound": "CC(C)C(NCCN(C(=O)[C@@H](NC(=O)c1ccc(C(=O)NS(=O)(=O)c2ccc(Cl)cc2)cc1)C(C)C)C1Cc2ccccc2C1)C(=O)C(F)(F)F (stereo partly specified)",
    "Measured target": "Neutrophil elastase (Homo sapiens, UniProt P08246)",
    "Relation symbol": "=",
    "IC50 / nM": 5000
  },
  {
    "Compound": "CC(C)C(NC(=O)CNC(=O)[C@@H](NC(=O)OC(C)(C)C)C(C)C)C(=O)C(F)(F)F (stereo partly drawn) (Boc-Val-Gly-[ξV]-CF3)",
    "Measured target": "Neutrophil elastase (Homo sapiens, UniProt P08246)",
    "Relation symbol": "=",
    "IC50 / nM": 153
  },
  {
    "Compound": "CC(C)C(NC(=O)CN(Cc1ccco1)C(=O)[C@@H](NC(=O)c1ccc(C(=O)NS(=O)(=O)c2ccc(Cl)cc2)cc1)C(C)C)C(=O)C(F)(F)F (stereo partly specified)",
    "Measured target": "Neutrophil elastase (Homo sapiens, UniProt P08246)",
    "Relation symbol": "=",
    "IC50 / nM": 138
  },
  {
    "Compound": "CC(C)[C@H](NC(=O)CN(C(=O)[C@@H](NC(=O)c1ccc(C(=O)NS(=O)(=O)c2ccc(Cl)cc2)cc1)C(C)C)C1Cc2ccccc2C1)C(=O)c1ccc(C(F)(F)F)cc1",
    "Measured target": "Neutrophil elastase (Homo sapiens, UniProt P08246)",
    "Relation symbol": "=",
    "IC50 / nM": 5100
  },
  {
    "Compound": "CCOC(=O)CCC(=O)Nc1nc(/C(=N\\OC)C(=O)N[C@H](C(=O)N(CC(=O)NC(C(=O)C(F)(F)F)C(C)C)C2Cc3ccccc3C2)C(C)C)cs1 (stereo partly specified)",
    "Measured target": "Neutrophil elastase (Homo sapiens, UniProt P08246)",
    "Relation symbol": "=",
    "IC50 / nM": 452
  }
]
